- System: C. trachomatis L2/434/Bu expressing GFP (CTL2-GFP)
- Construct: L2/434/Bu GFP intracellular growth in HeLa cells
- assay method text: microbe, parasite or virus in culture
- Set-up: C. trachomatis total inclusion area by high-content imaging, normalised to DMSO
- settings: Chlamydia trachomatis, HeLa, 28.5 h; total inclusion area; read-out: % of control remaining
quantity name: activity at 5 µM (%)
Give bare numbers, in %.

Below are worked cases with known answers.
Query: Retrieve activity at 5 µM measured for O=S(=O)(Nc1ccc(C(F)(F)F)cc1Cl)c1cc(Br)c(Cl)s1 and print it.
Response: 75.1

Query: Retrieve activity at 5 µM measured for O=C(N/N=C/c1ccc(Sc2cccc3cccnc23)o1)c1cccc(F)c1 and print it.
Response: 4.03

Query: Retrieve activity at 5 µM measured for Cc1c(C(=O)Nc2ccc(Cl)cc2)sc2c1C(c1cccnc1)CC(=O)N2 (centres unmarked) and print it.
Response: 56.2

Query: Retrieve activity at 5 µM measured for O=C(NCCCn1ccnc1)c1cc(-c2cccc(Br)c2)nc2ccccc12 and print it.
Response: 28.5

Give activity at 5 µM for each listed item.
1. CCOC(=O)c1c(C)n(-c2ccc(C)cc2)c2ccc(O)c(CN(C)C)c12 [CBK263499C]
2. Cc1cccc(-c2ccc(CC3(C(N)=O)CCN(C(=O)CCc4ccccc4)CC3)cc2)c1
3. O=[N+]([O-])c1ccc(-n2cnc3ccccc32)c([N+](=O)[O-])c1
4. OC(COc1ccc(Br)cc1)CN1CCCN(c2nc3ccc(Cl)cc3s2)CC1 (centres unmarked)
5. CC(=O)NC[C@H]1CN(c2ccc(C3=CC[S+]([O-])CC3)c(F)c2)C(=O)O1 (some centres unmarked)
6. CCc1nnc(NS(=O)(=O)c2ccc(NC(=S)Nc3ccc(F)cc3)cc2)s1
7. COc1ccc(C=CC(=O)Nc2sc3c(c2C(=O)O)CCCC3)cc1OC
8. CCc1nnc(NS(=O)(=O)c2ccc(NC(=O)COc3ccc(Cl)cc3Cl)cc2)s1

Response:
1: 95.9; 2: 4.18; 3: 46.4; 4: 82.4; 5: 7.09; 6: 26.5; 7: 69.8; 8: 67

Give activity at 5 µM for each listed item.
1. CC(=O)Nc1ccc(-c2cccc(COC3CCN(C(=O)c4ccc(OC(C)C)cc4)CC3)c2)cc1
2. O=C(c1cccs1)N1C[C@H](c2ccc(F)cc2)[C@H]2CN(Cc3ccccc3)CC[C@H]21
3. CCc1nnc(NS(=O)(=O)c2ccc(N/C=C3\C(=O)N(c4ccc(C)cc4)N=C3C)cc2)s1
4. Cc1cc(OCC(=O)Nc2ccc(S(=O)(=O)Nc3onc(C)c3C)cc2)cc(C)c1Cl

Response:
32.5
78.2
36.9
25.5

Give activity at 5 µM for each listed item.
1. Cc1cc(NS(=O)(=O)c2ccc(NC(=S)NC(=O)C(C)(C)C)cc2)no1
2. Clc1ccc2nc(-c3ccccn3)[nH]c2c1
3. N=C(N)SCc1csc(-c2ccc(Br)cc2)n1 [CBK017064C]
4. O=C(CC1CCN(CCc2ccccc2)CC1)Nc1cccc(-n2cccn2)c1
5. CC(=O)NC[C@H]1CN(c2ccc(C#N)c(C)c2)C(=O)O1
6. FC(F)(F)c1ccc(N2CCNCC2)nc1OCc1ccc2c(c1)OCCO2 [CBK003994A]
7. CC(=O)NC[C@H]1CN(c2ccc(-c3nnc(C(C)O)s3)c(F)c2)C(=O)O1 (some centres unmarked)

Response:
64
9.19
91.3
0.475
94.2
8.88
0.644

---

For each of the compounds below, state its viability at 28.5 h, 10 µM.
- assay method text: in vitro
- settings: human, hela cells, % viability
Answers are plain numbers, in %.

Below are worked cases with known answers.
Query: Retrieve viability at 28.5 h, 10 µM measured for CO/N=C(N)/C(N)=N/OC and print it.
Response: 98.4

Query: Retrieve viability at 28.5 h, 10 µM measured for Cc1[nH]c(=O)[nH]c(=O)c1Cc1cccc2ccccc12 and print it.
Response: 92.8

Query: Retrieve viability at 28.5 h, 10 µM measured for O=C(N/N=C/c1ccccn1)c1cc(-c2ccc3ccccc3c2)[nH]n1 and print it.
Response: 93.9

Give viability at 28.5 h, 10 µM for each listed item.
1. O=C(C[S+]([O-])c1nc2ccccc2[nH]1)N1CCOCC1 (centres unmarked)
2. Cc1ccc(-c2cccc(N3CCN(CCN4CCCC4)CC3)n2)cc1C
3. Cc1ccc(C(=O)Nc2cccc(OC(=O)c3cc(S(=O)(=O)N4CCCCC4)ccc3Cl)c2)cc1
4. NC(=O)C1CCN(C(=O)c2cc(O)nc3ccccc23)CC1
5. Cc1csc2ncc(C(=O)Nc3ccccc3F)c(=O)n12
6. O=C(Nc1cccc(N2CCCC2=O)c1)c1ccccc1Nc1ccccc1
7. O=C(CC(CN1CCN(c2ccccn2)CC1)C(=O)O)NCc1ccccc1 (centres unmarked)

Response:
1. 98.1
2. 113
3. 97.8
4. 98.2
5. 113
6. 85.8
7. 89

Give viability at 28.5 h, 10 µM for each listed item.
1. O=C(NCc1ccccc1)c1ccc2[nH]nnc2c1
2. C(=N\Nc1nc(-c2ccccc2)cs1)/c1ccccc1
3. O=C(Nc1ccc(Cl)nc1)C(F)(F)F
4. Cn1ccc(C2CCCCCN2S(=O)(=O)c2ccc3[nH]c(=O)[nH]c(=O)c3c2)n1 (centres unmarked)
5. CC(CC(=O)O)CC(=O)Nc1ccc(C(=O)O)cc1 (centres unmarked)

Response:
1: 86.9; 2: 101; 3: 101; 4: 71.1; 5: 103

Give viability at 28.5 h, 10 µM for each listed item.
1. Cc1nn(C)cc1C(C)NC(=O)c1ccc2c(c1)ncn2C (centres unmarked)
2. CC(Oc1cccc(Cl)c1)C(=O)Nc1ncccn1 (centres unmarked)
3. Cn1cc(-c2nccnc2OCCOc2ccccc2)cn1
4. CN(C)c1ccc(C=Nc2ccc(NC(=O)CCC(=O)O)cc2)cc1
5. CCC1CCCCN1C(=O)c1c(Cl)cccc1Cl (centres unmarked)
6. Cc1nc(CC(NC(=O)C(c2ccccc2)c2ccccc2)c2ccc(F)cc2)cc(=O)[nH]1 (centres unmarked)
7. Cc1ccc(-n2nnc(C(=O)N3CCCCC3C(=O)O)c2C)cc1 (centres unmarked)
8. O=C(O)C1C2C=CC(O2)C1C(=O)NCc1ccccn1 (centres unmarked)

Response:
103
90.2
94.9
92
99.3
101
87.7
99.1

Give viability at 28.5 h, 10 µM for each listed item.
1. O=C(CSc1ncn[nH]1)N/N=C/c1cn(-c2ccccc2)nc1-c1ccccc1
2. COc1cc2ccccc2cc1C(=O)Nc1nnc(-c2ccncc2)o1

Response:
1. 101
2. 93.1

---

- assay method text: in vitro
- settings: human, hela cells, % viability
For each of the molecules below, state its viability at 28.5 h, 10 µM.

Below are worked cases with known answers.
Query: Retrieve viability at 28.5 h, 10 µM measured for CCN1CCN(C(=O)CN(CC)S(=O)(=O)c2ccc3ccccc3c2)CC1 and print it.
Response: 101%

Query: Retrieve viability at 28.5 h, 10 µM measured for Cn1cc(C(=O)N2CCc3nc(-c4ccccc4F)sc3C2)cn1 and print it.
Response: 89%

Query: Retrieve viability at 28.5 h, 10 µM measured for Cc1cc(C)nc(Nc2n[nH]c(COc3ccccc3)n2)n1 and print it.
Response: 93.2%

Query: Retrieve viability at 28.5 h, 10 µM measured for CN1C(=O)C(CCNc2ccccc2)S/C1=N/C1CC2C=CC1C2 (stereo not shown) and print it.
Response: 114%

Query: Retrieve viability at 28.5 h, 10 µM measured for O=C(NCc1ccc(-c2csnn2)cc1)c1cccnc1 and print it.
Response: 87%

Query: Retrieve viability at 28.5 h, 10 µM measured for O=[N+]([O-])c1ccc(Sc2cccc(F)c2)nc1 and print it.
Response: 103%

Continue with the molecule presented below.
Query: Retrieve viability at 28.5 h, 10 µM measured for CC(=O)Nc1ccc(OC(=O)CSc2nc(C)cc(-c3ccccc3)n2)cc1 and print it.
Response: 94.7%

---

- assay method text: in vitro
- settings: human, hela cells, % viability
quantity name: viability at 28.5 h, 10 µM (%)
One number for each entry, in %.

Query: Retrieve viability at 28.5 h, 10 µM measured for C=CCOCc1cc(O)n2nc(SC)c(C(N)=O)c2n1 and print it.
Response: 94.6

Give viability at 28.5 h, 10 µM for each listed item.
1. COc1ccc(C(=O)OC(C)(C)C)c(-c2nccnc2N2CCCN(C)CC2)c1
2. O=C(O)c1cccc(N2N=C(c3ccccc3)CC2=O)c1
3. Cc1ccc(S(=O)(=O)OC[C@H]2O[C@@H](n3ccc(=O)[nH]c3=O)C[C@H]2O)cc1
4. COc1cccc(-c2nnc(SCc3nc4ccccc4[nH]3)n2N)c1
5. CC1(C)CC(=O)C(C(=S)Nc2ccccc2)=C(O)C1
6. CCOc1cc(NC2CCN(C(=O)Cc3cc(C)on3)CC2)ncn1

Response:
1. 103
2. 96.5
3. 95.7
4. 91
5. 95.3
6. 113

Attribution: paper PMC12040169
